IC50: recorded values
# measuredTarget: Glycogen synthase kinase-3 (Homo sapiens, UniProt P49840+P49841)
# assaySummary: Inhibition of glycogen synthase kinase 3
# Type: protein assay
testReadout: IC50 (µM)

smilesRepr: O=c1cc(-c2ccccc2)oc2cc(O)cc(O)c12
unitDescriptor: µM
numericReadout: 7.2
--
smilesRepr: O=c1c(O)c(-c2ccc(O)c(O)c2)oc2cc(O)ccc12
unitDescriptor: µM
numericReadout: 0.42
--
smilesRepr: O=c1c(O)c(-c2ccc(O)c(O)c2)oc2cc(O)cc(O)c12
unitDescriptor: µM
numericReadout: 2.1
--
smilesRepr: O=c1c(O)c(-c2ccc(O)cc2)oc2cc(O)cc(O)c12
unitDescriptor: µM
numericReadout: 3.5
--
smilesRepr: O=c1cc(-c2ccc(O)cc2)oc2cc(O)cc(O)c12
unitDescriptor: µM
numericReadout: 1.4
--
smilesRepr: O=c1cc(-c2ccc(O)c(O)c2)oc2cc(O)cc(O)c12
unitDescriptor: µM
numericReadout: 0.8

====

# measuredTarget: Cyclin-dependent kinase 1/cyclin B (Homo sapiens)
# assaySummary: Inhibition of cyclin-dependent kinase 1/cyclinB
Recorded log10(IC50), one value per entry.
testReadout: log10(IC50) (log10 of the value in µM)

smilesRepr: O=c1c(O)c(-c2ccc(O)c(O)c2)oc2cc(O)cc(O)c12
log10(IC50): 1.88

smilesRepr: O=c1cc(-c2ccccc2)oc2cc(O)cc(O)c12
log10(IC50): 0.85

smilesRepr: O=c1c(O)c(-c2ccc(O)c(O)c2)oc2cc(O)ccc12
log10(IC50): -0.10

smilesRepr: O=c1c(O)c(-c2ccc(O)cc2)oc2cc(O)cc(O)c12
log10(IC50): 1.61

smilesRepr: O=c1cc(-c2ccc(O)cc2)oc2cc(O)cc(O)c12
log10(IC50): 0.60

====

# measuredTarget: Cyclin-dependent kinase 6 (Homo sapiens, UniProt Q00534)
# Sequence (Q00534 whole entry): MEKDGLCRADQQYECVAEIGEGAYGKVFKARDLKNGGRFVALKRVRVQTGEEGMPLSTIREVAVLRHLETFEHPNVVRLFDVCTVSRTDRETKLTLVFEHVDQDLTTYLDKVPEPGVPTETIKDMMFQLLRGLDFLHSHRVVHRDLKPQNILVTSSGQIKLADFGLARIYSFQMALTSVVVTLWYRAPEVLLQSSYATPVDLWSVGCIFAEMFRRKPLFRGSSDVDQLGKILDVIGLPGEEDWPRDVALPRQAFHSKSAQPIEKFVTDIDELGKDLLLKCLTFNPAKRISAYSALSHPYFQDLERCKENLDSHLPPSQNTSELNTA
# assaySummary: Inhibition of human cyclin-dependent kinase 6 complex with a virus-encoded cyclin from herpesvirus saimiri (Vcyclin)
pIC50: −log10 of the molar value.
testReadout: pIC50

smilesRepr: O=c1cc(-c2ccccc2)oc2cc(O)cc(O)c12
measuredTarget: Cyclin-dependent kinase 6 (Homo sapiens, UniProt Q00534)
comparisonSymbol: =
numericReadout: 5.22
--
smilesRepr: O=c1c(O)c(-c2ccc(O)cc2)oc2cc(O)cc(O)c12
measuredTarget: Cyclin-dependent kinase 6 (Homo sapiens, UniProt Q00534)
comparisonSymbol: =
numericReadout: 4.66
--
smilesRepr: O=c1c(O)c(-c2ccc(O)c(O)c2)oc2cc(O)cc(O)c12
measuredTarget: Cyclin-dependent kinase 6 (Homo sapiens, UniProt Q00534)
comparisonSymbol: =
numericReadout: 4.60
--
smilesRepr: O=c1cc(-c2ccc(O)cc2)oc2cc(O)cc(O)c12
measuredTarget: Cyclin-dependent kinase 6 (Homo sapiens, UniProt Q00534)
comparisonSymbol: =
numericReadout: 5.77
--
smilesRepr: O=c1cc(-c2ccc(O)c(O)c2)oc2cc(O)cc(O)c12
measuredTarget: Cyclin-dependent kinase 6 (Homo sapiens, UniProt Q00534)
comparisonSymbol: <
numericReadout: 3.52

====

# measuredTarget: Cyclin-dependent kinase 5/CDK5 activator 1 (Homo sapiens)
# Sequence (Q00535 whole entry): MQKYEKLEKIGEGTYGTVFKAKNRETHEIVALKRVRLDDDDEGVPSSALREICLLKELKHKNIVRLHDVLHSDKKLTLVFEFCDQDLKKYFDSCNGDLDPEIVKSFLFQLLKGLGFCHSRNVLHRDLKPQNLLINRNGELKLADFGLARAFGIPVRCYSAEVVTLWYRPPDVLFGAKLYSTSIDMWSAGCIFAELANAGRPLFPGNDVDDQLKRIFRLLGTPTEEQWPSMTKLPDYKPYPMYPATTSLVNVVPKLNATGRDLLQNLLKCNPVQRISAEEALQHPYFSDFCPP
# Sequence (Q15078 whole entry, further chain): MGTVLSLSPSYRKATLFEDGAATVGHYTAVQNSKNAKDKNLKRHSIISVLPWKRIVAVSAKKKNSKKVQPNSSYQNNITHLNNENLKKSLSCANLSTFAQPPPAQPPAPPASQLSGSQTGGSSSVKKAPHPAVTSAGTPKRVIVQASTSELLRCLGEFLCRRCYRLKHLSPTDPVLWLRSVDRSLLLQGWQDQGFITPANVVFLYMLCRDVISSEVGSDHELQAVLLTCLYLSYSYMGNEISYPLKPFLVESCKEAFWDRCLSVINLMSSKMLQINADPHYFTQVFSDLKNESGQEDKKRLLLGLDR
# assaySummary: Inhibition of Cyclin-dependent kinase 5-p25nck5a
testReadout: IC50 (µM)

compound: O=c1cc(-c2ccc(O)cc2)oc2cc(O)cc(O)c12 [APIGENIN]
testReadout: IC50
unitDescriptor: µM
numericReadout: 1.6
//
compound: O=c1c(O)c(-c2ccc(O)c(O)c2)oc2cc(O)ccc12 [FISETIN]
testReadout: IC50
unitDescriptor: µM
numericReadout: 0.57
//
compound: O=c1cc(-c2ccc(O)c(O)c2)oc2cc(O)cc(O)c12 [LUTEOLIN]
testReadout: IC50
unitDescriptor: µM
numericReadout: 3.8
//
compound: O=c1cc(-c2ccccc2)oc2cc(O)cc(O)c12 [CHRYSIN]
testReadout: IC50
unitDescriptor: µM
numericReadout: 3.1
//
compound: O=c1c(O)c(-c2ccc(O)cc2)oc2cc(O)cc(O)c12 [KAEMPFEROL]
testReadout: IC50
unitDescriptor: µM
numericReadout: 51
